The values you see were collected from ChEMBL document CHEMBL5291721.

# maps each entry to its AC50
molecular target: 3',5'-cyclic-AMP phosphodiesterase 4D (Homo sapiens); format: functional; also: assay procedure not described here
Sequence (Q08499 whole entry): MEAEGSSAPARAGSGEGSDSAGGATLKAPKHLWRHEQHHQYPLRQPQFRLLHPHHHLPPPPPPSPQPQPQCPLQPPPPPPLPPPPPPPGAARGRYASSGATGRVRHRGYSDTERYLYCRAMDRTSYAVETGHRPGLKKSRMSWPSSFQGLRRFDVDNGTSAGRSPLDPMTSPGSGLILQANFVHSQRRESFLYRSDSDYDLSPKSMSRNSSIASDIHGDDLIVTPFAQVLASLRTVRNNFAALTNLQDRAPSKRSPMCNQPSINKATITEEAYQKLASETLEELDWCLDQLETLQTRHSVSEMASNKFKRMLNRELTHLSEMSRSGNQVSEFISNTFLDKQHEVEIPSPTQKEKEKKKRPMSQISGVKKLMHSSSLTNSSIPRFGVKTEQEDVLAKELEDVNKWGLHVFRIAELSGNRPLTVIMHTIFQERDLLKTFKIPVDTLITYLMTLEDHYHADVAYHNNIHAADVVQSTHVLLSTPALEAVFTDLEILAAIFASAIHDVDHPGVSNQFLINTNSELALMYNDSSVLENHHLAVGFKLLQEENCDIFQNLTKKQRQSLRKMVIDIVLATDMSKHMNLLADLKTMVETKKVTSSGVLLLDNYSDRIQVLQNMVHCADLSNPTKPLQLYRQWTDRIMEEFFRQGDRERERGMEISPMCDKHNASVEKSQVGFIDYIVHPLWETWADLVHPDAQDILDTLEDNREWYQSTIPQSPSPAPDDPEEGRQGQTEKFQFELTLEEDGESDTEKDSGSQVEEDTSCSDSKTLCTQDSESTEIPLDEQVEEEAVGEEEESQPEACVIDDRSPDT

C=C1/C(=C\C=C2/CCC[C@]3(C)[C@@H]([C@H](C)/C=C/[C@@H](O)C4CC4)CC[C@@H]23)C[C@@H](O)C[C@@H]1O = > 30 µM
CC(=O)[C@@]1(O)CC[C@H]2[C@@H]3C=C(Cl)C4=CC(=O)[C@@H]5C[C@@H]5[C@]4(C)[C@H]3CC[C@@]21C = > 10 µM
Clc1ccc2c(N3CCN(CCCN4CCN(c5ccnc6cc(Cl)ccc56)CC4)CC3)ccnc2c1 = 22 µM
C[C@H](CCC(=O)O)[C@H]1CC[C@H]2[C@@H]3[C@@H](O)C[C@@H]4C[C@H](O)CC[C@]4(C)[C@H]3CC[C@]12C = > 30 µM
C[C@@H](Oc1cc(-c2cnn(C3CCNCC3)c2)cnc1N)c1c(Cl)ccc(F)c1Cl = 4.8 µM
COc1cc2c(cc1OC)C(CCc1ccc(Cl)cc1)N(C)CC2 (stereo not given) = > 30 µM
CC(C(=O)O)c1ccc(CC2CCCC2=O)cc1 (stereo not given) = > 30 µM
CN1C[C@H](C(=O)N[C@]2(C)O[C@@]3(O)[C@@H]4CCCN4C(=O)[C@H](Cc4ccccc4)N3C2=O)C=C2c3cccc4[nH]cc(c34)C[C@H]21 = > 30 µM

The value of AC50 measured for the compound C#CCOc1ccc(N)cc1C(=O)NCCCC [PARSALMIDE] turned out to be > 30 µM

The value of AC50 measured for the compound COc1ccc(-c2noc(CC(=O)O)c2-c2ccc(OC)cc2)cc1 turned out to be > 30 µM
